// reported pIC50 per item
# assayed.system: c-erbB-4 (Homo sapiens)
# Construct: recombinant constructs of the intracellular domains of c-erbB-2 and c-erbB-4 that are constitutively active
# Sequence (Q15303 676-1308 limits assumed): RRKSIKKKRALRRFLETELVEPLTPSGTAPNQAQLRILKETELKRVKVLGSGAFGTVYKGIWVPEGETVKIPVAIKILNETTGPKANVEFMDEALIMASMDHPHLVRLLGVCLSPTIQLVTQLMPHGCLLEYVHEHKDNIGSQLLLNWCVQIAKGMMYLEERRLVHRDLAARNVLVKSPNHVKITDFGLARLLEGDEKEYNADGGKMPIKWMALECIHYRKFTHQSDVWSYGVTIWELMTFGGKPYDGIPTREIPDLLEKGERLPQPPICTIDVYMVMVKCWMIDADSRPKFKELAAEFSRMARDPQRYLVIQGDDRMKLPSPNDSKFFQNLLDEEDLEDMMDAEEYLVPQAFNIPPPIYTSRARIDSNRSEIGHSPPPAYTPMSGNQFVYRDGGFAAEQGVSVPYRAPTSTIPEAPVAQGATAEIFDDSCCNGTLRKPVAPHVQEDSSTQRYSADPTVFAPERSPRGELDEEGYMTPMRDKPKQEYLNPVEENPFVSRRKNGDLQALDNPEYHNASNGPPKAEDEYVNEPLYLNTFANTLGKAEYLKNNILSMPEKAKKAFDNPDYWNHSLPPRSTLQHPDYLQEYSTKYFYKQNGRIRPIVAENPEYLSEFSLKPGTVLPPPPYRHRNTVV
# experiment: Substrate phosphorylation assay, erbB4 tyrosine kinase inhibition
# test.parameters: tested in buffered solution
pIC50: −log10 of the molar value.

1) CS(=O)(=O)CCNCc1ccc(-c2ccc3ncnc(Nc4ccc(OCc5cccc(F)c5)c(Br)c4)c3c2)o1 [Example 12, ditosylate] : 5.00 to 6.00

Can you look up the measured pIC50 of CS(=O)(=O)CCNCc1nc(-c2ccc3ncnc(Nc4ccc(OCc5cccc(F)c5)c(Cl)c4)c3c2)cs1 [Example 13, ditosylate] for me?
6.00 to 7.00

* * *

# assayed.system: c-erbB-2 (Homo sapiens, UniProt P04626)
# Construct: recombinant constructs of the intracellular domains of c-erbB-2 and c-erbB-4 that are constitutively active; made in house
# Sequence (P04626 676-1255 limits assumed): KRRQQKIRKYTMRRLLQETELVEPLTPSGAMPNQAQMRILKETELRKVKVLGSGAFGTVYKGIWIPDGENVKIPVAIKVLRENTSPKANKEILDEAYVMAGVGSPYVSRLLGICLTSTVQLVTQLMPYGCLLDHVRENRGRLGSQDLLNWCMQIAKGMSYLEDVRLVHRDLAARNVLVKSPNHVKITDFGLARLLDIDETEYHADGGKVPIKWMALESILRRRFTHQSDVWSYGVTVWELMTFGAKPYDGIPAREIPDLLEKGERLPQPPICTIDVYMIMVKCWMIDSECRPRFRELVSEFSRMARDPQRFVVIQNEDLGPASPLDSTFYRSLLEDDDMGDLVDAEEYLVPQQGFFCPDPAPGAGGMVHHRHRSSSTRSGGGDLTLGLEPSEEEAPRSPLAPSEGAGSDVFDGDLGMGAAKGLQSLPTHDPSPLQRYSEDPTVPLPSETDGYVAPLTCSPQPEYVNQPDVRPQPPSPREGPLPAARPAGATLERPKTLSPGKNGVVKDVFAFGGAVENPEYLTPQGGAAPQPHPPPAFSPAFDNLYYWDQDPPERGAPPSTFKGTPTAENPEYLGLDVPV
# experiment: Substrate phosphorylation assay, erbB2 tyrosine kinase inhibition
# Type: biochemical
# test.parameters: tested in buffered solution
property.label: IC50

1. CS(=O)(=O)CCNCc1nc(-c2ccc3ncnc(Nc4ccc(OCc5cccc(F)c5)c(Cl)c4)c3c2)cs1 [Example 13, ditosylate] : < 100 nM

Can you look up the measured IC50 of CS(=O)(=O)CCNCc1ccc(-c2ccc3ncnc(Nc4ccc(OCc5cccc(F)c5)c(Br)c4)c3c2)o1 [Example 12, ditosylate] for me?
< 100 nM

* * *

# Tested on: gastric tumor (N87) cell lines
# experiment: Methylene Blue Growth Inhibition Assay, N87
# Assay type: cell-based
# test.parameters: Homo sapiens, 72 h; 3 days incubation, methylene blue staining
property.label: IC50

Examples with their reported IC50 follow.
1) CS(=O)(=O)CCNCc1nc(-c2ccc3ncnc(Nc4ccc(OCc5cccc(F)c5)c(Cl)c4)c3c2)cs1 [Example 13, ditosylate] : < 5 µM
2) CS(=O)(=O)CCNCc1ccc(-c2ccc3ncnc(Nc4ccc(OCc5cccc(F)c5)c(Br)c4)c3c2)o1 [Example 12, ditosylate] : < 5 µM

Can you look up the measured IC50 of CS(=O)(=O)CCNCc1ccc(-c2ccc3ncnc(Nc4ccc(OCc5cccc(F)c5)c(Cl)c4)c3c2)o1 [Example 8] for me?
< 5 µM

* * *

# assayed.system: EGFr isolated from solubilised A431 cell membranes (Homo sapiens, UniProt P00533)
# Sequence (P00533 25-1210): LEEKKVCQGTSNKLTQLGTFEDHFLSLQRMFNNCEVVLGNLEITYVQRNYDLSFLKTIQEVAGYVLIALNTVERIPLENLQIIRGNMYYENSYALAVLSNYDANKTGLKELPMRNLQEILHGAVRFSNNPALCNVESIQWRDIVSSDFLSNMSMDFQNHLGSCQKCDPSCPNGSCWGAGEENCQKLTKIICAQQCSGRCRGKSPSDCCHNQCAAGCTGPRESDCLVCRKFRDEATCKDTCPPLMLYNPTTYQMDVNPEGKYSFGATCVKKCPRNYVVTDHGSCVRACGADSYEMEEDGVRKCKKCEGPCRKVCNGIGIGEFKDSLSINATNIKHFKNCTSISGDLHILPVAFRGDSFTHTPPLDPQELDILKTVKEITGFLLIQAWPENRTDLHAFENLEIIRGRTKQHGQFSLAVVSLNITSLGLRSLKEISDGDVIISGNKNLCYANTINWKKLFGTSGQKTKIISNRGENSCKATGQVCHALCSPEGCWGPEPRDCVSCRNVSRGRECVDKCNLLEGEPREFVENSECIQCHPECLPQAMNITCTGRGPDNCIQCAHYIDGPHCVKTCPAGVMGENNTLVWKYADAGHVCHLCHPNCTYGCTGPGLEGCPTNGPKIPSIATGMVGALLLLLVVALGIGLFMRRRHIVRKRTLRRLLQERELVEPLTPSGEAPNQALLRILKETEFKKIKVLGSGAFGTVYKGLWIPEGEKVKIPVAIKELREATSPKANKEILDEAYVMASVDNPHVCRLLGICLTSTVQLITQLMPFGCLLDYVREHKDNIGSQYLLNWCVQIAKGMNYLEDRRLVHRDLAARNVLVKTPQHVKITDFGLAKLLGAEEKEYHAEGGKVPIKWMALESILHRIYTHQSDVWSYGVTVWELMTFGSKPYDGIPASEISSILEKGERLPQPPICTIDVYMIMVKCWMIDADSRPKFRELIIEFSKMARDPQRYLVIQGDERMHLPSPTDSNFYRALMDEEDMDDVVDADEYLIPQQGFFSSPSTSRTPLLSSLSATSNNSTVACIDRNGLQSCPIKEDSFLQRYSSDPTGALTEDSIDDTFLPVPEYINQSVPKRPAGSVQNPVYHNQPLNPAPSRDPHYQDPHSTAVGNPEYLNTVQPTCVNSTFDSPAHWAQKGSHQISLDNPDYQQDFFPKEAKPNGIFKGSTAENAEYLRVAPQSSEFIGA
# experiment: Substrate phosphorylation assay, EGFR tyrosine kinase inhibition
# test.parameters: tested in buffered solution
pIC50: −log10 of the molar value.
property.label: pIC50

1) CS(=O)(=O)CCNCc1nc(-c2ccc3ncnc(Nc4ccc(OCc5cccc(F)c5)c(Cl)c4)c3c2)cs1 [Example 13, ditosylate] : > 7.00

As a next step, examine the molecule that follows.
Can you look up the measured pIC50 of CS(=O)(=O)CCNCc1ccc(-c2ccc3ncnc(Nc4ccc(OCc5cccc(F)c5)c(Br)c4)c3c2)o1 [Example 12, ditosylate] for me?
> 7.00
